Biological target: Corticotropin-releasing factor receptor 2/Corticotropin-releasing factor-binding protein (Homo sapiens, UniProt P24387+Q13324)
Sequence (Q13324 whole entry): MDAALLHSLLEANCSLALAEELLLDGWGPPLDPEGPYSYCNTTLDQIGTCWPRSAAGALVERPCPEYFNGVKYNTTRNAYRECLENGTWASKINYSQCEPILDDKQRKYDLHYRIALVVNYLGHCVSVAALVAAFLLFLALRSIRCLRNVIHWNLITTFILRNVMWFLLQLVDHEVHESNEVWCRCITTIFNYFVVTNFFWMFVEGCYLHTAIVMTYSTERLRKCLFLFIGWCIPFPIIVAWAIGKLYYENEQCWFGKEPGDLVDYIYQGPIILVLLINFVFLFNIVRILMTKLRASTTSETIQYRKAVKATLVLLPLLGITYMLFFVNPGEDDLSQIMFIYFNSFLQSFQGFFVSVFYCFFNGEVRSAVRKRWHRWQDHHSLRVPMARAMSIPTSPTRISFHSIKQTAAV
Sequence (P24387 whole entry): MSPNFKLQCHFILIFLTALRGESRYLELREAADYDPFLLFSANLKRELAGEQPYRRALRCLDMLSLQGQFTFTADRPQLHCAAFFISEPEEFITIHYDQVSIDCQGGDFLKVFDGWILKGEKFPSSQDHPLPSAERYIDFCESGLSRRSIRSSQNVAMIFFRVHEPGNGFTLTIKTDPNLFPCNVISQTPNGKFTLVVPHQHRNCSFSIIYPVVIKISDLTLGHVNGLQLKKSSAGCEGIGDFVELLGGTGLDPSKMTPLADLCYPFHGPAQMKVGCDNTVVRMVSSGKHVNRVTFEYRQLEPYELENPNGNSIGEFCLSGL
Experiment: activators of CRF receptor 2 with binding protein – uHTS hits, confirmation (AID 602473)
Assay type: functional
Details: read-out: EC50_Mean
Active and inactive are the calls of the source.
I would appreciate it if you answered using one of these outcomes: label 1 for active, label 0 for inactive

Example results:
O=C(COc1ccc(F)cc1)N(Cc1cccs1)C1CCS(=O)(=O)C1 (stereo not drawn)
label 0
C=CCO/C(O)=C1\C(C)=NC2(O)c3ccccc3C(=O)C12O (stereo not drawn)
label 0
CCC1(c2ccccc2)NC(=O)N(CC(=O)Nc2ccc(OC)nc2)C1=O (stereo not drawn)
label 1

Recorded call for CC1(C)Cc2c(C#N)c(NCC3CCCO3)nc(-c3ccco3)c2CO1 (stereo not drawn) ?
label 0

Recorded call for COc1ccc(OC)c(-c2cc(C(=O)O)c3cc4ccccc4cc3n2)c1 ?
label 0

Recorded call for COCCn1c(SCc2nnc(-c3ccccc3)o2)nc2sc3c(c2c1=O)CCC3 ?
label 0

* * *

Biological target: Fatty acid synthase (Homo sapiens, UniProt P49327)
Sequence (P49327 whole entry, the tested form may be a part): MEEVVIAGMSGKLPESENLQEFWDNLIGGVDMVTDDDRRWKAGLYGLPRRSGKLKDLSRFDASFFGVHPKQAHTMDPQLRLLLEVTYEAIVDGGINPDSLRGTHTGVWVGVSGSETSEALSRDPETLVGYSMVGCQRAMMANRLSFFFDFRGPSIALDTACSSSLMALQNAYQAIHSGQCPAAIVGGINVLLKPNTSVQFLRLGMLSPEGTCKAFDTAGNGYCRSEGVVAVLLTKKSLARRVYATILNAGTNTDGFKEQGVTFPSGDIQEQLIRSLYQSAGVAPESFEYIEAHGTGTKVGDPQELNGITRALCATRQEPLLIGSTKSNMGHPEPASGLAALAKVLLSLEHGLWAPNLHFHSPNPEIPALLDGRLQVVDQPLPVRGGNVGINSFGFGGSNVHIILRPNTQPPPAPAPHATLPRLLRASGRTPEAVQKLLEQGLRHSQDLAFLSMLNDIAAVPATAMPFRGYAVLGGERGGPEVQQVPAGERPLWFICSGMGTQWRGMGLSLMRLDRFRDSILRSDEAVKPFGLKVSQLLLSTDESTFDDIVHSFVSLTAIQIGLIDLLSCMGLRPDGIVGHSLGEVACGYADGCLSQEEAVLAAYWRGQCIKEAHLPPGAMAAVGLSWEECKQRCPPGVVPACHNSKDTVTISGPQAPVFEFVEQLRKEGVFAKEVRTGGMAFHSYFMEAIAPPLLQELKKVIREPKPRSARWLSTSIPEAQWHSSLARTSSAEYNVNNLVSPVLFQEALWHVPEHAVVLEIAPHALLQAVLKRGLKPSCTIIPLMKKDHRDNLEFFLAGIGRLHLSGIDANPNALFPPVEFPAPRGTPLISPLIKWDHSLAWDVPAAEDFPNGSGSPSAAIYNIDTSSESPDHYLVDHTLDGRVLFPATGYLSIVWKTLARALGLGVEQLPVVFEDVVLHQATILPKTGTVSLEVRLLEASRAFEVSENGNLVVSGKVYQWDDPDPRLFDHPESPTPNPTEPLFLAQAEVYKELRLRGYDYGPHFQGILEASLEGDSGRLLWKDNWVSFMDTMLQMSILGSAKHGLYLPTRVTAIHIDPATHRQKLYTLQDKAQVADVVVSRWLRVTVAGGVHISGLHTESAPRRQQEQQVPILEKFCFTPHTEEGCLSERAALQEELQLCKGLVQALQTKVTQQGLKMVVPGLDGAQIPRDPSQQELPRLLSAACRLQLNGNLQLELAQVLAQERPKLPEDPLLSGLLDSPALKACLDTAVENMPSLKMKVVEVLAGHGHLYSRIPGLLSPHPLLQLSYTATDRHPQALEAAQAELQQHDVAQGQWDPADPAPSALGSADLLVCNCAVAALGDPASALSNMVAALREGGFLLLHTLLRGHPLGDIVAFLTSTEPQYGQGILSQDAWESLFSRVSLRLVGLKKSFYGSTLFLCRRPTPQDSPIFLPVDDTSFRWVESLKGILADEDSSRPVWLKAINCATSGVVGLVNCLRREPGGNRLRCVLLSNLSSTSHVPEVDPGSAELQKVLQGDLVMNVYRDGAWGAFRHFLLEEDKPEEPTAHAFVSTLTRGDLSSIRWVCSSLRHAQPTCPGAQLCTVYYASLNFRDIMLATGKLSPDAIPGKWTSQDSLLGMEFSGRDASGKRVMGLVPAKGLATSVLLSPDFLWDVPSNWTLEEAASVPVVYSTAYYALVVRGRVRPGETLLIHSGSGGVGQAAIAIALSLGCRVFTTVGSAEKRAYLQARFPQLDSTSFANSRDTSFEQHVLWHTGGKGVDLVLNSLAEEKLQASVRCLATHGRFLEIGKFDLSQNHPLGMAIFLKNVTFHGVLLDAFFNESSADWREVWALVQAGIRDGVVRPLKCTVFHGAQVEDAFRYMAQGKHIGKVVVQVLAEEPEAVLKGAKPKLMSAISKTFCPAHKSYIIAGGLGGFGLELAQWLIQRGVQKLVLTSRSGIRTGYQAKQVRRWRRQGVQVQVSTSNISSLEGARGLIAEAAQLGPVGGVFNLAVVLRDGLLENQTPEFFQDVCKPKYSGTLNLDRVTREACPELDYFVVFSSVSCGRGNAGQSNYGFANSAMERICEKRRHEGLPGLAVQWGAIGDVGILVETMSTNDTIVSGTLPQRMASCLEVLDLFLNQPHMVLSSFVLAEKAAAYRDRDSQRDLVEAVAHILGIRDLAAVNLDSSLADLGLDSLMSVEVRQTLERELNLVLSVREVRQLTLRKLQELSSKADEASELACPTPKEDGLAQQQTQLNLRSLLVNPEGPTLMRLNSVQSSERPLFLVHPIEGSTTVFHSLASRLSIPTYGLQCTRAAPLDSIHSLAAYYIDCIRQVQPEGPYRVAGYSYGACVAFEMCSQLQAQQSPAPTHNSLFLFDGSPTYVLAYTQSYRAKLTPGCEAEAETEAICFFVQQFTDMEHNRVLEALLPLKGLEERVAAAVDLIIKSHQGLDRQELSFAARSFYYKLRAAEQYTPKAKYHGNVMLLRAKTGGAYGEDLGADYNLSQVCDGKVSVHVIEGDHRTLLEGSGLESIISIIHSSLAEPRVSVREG
Assay: FAS thioesterase domain inhibitors, dose response, biochemical, kinetic fluorescence intensity (AID 624326);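 further: rate of fluorescence rise from hydrolysis of a fluorogenic O-methyl fluorescein ester substrate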
Format: functional
Activity calls are given as the source filed them.
I would appreciate it if you answered using one of these outcomes: active, inactive

Cn1c(SCC(=O)Nc2ncc(C(F)(F)F)cc2Cl)nnc1-c1ccc(Cl)cc1
active
Cc1ccc(C(=O)NCC(=O)OCc2nnc(-c3ccc([N+](=O)[O-])cc3)o2)cc1
active
COc1ccc([N+](=O)[O-])cc1NC(=O)N(C)Cc1ccco1
inactive
CC[C@@]1(c2cccc(C)c2)C(=O)N(C(=O)OC)N1C(=O)OC
active
CC(=O)c1cc(C#N)c(SCCC(C)C)nc1C
active

Recorded call for Cc1nn(Cc2ccc([N+](=O)[O-])cc2)c(=O)n1-c1cccc(Cl)c1 ?
active

Recorded call for CSc1ccc(COC(=O)c2cc([N+](=O)[O-])ccc2N2CCOCC2)cc1 ?
active

* * *

This document collects AC50 values reported for UniProtKB P05177.
Sequence (P05177 whole entry): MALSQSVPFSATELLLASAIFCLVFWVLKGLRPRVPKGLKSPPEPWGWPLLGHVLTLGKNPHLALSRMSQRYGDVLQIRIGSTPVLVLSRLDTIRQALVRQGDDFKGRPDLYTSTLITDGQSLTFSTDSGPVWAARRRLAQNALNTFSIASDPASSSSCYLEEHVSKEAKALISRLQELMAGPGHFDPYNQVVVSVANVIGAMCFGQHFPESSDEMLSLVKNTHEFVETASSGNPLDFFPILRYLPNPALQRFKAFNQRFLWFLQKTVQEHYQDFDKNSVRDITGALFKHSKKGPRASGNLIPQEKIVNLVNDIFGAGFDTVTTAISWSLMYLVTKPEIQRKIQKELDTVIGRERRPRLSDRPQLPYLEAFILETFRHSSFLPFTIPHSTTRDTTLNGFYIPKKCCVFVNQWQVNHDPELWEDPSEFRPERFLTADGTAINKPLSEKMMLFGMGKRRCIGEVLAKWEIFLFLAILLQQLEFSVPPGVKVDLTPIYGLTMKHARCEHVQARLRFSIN

I need AC50 for every entry listed below, if you could help.
1. C=CCn1c(SCc2ccccc2)nc2scc(-c3ccc(C)o3)c2c1=O
2. CCC(COC(=O)NC)NC(=O)Oc1ccccc1 (stereo not given)
3. CCCS(=O)(=O)N1CCCC(C(=O)N2CCOCC2)C1 (stereo not given)
4. COc1ccc(CCNC(=O)COC(=O)c2cnc(C)cn2)cc1
5. CC(C)(Sc1ccc(CCN(CCCCC2CCCCC2)C(=O)NC2CCCCC2)cc1)C(=O)O

1: 1.58 µM (inconclusive); 2: 39.8 µM (inconclusive); 3: 5.01 µM (inconclusive); 4: 25.1 µM (inconclusive); 5: 39.8 µM (inconclusive)

* * *

Hi there, I'd appreciate the recorded EC50 for every entry that follows.
Experiment: inhibitors of intracellular T. cruzi replication, confirmation, NIH3T3 host cells, beta-gal luminescence (AID 2044);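 further: intracellular parasites grown in NIH/3T3 mouse fibroblasts as host cells; luminescent beta-galactosidase reporter signal from transgenic T. cruzi replicating inside host cells; inhibitors lower the luminescence signal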
Assay type: functional, cell-based
Calls of active or inactive are those of the source.

COc1cc2c(O)c3c(c(-c4ccc5c(c4)OCO5)c2cc1OC)C(=O)OC3
1.65 µM (active)
O=C(N/N=C/c1ccc([N+](=O)[O-])o1)c1cn(-c2ccccc2)nc1-c1ccccc1
< 0.1 µM (active)
O=C(Nc1nccs1)c1sc2cc(Cl)ccc2c1Cl
2.31 µM (active)

Attention now shifts to the item below.
Sample Cc1cc(C)c2c(N)c3cccc(C)c3nc2n1 — what was its EC50?
1.27 µM (active)

* * *

Target: Fatty acid synthase (Homo sapiens)
Test: FAS thioesterase domain inhibitors, dose response, biochemical, endpoint fluorescence intensity, uHTS hits (AID 624327);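 further: fluorescence from hydrolysis of an O-methyl fluorescein acyl ester substrate by the enzyme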
Assay type: functional
Active and inactive are the calls of the source.
Hi there, I'd appreciate the recorded IC50 for every entry that follows.

COc1ccc([N+](=O)[O-])cc1NC(=O)N(C)Cc1ccco1
17.7 µM (active)

I need IC50 for every entry listed below, if you could help.
1. Cn1c(SCC(=O)Nc2ncc(C(F)(F)F)cc2Cl)nnc1-c1ccc(Cl)cc1
2. CC(=O)c1cc(C#N)c(SCCC(C)C)nc1C

1. 0.551 µM (active)
2. 9.77 µM (active)

* * *

This document collects AC50 values reported for Cytochrome P450 2C9 (Homo sapiens, UniProt P11712).

Previously resolved entries follow.
CN1CCN(/C=N/C2=C(C#N)C(c3ccccc3)C3=C(CC(C)(C)CC3=O)O2)CC1 (stereo not drawn)
14.1 µM (inconclusive)
COc1ccc(C2C3=C(CC(C)(C)CC3=O)Oc3ncn(CC(C)C)c(=N)c32)cc1 (stereo not drawn)
39.8 µM (inconclusive)
O=C(CCOc1ccccc1)Nc1ccccc1
1 µM (inconclusive)
O=C(c1csnn1)N1CCC2(CCCN(Cc3cc(C(F)(F)F)cc(C(F)(F)F)c3)C2)CC1
39.8 µM (inconclusive)
COc1ccc(OC)c(-c2cc(C(=O)O)c3cc4ccccc4cc3n2)c1
3.16 µM (inconclusive)

I need AC50 for every entry listed below, if you could help.
1. CN(C)c1ccc(-c2nccc(Nc3ccc(F)cc3)n2)cc1
2. CC1CNC(=Nc2cccc3ccccc23)S1 (stereo not drawn)
3. Cc1nc(S(=O)(=O)N(C)c2ccccc2)c(C#N)c(C)c1Cl

1. 0.631 µM (inconclusive)
2. 14.1 µM (inconclusive)
3. 17.8 µM (inconclusive)

* * *

Biological target: UniProt:P10520
Sequence (P10520 whole entry): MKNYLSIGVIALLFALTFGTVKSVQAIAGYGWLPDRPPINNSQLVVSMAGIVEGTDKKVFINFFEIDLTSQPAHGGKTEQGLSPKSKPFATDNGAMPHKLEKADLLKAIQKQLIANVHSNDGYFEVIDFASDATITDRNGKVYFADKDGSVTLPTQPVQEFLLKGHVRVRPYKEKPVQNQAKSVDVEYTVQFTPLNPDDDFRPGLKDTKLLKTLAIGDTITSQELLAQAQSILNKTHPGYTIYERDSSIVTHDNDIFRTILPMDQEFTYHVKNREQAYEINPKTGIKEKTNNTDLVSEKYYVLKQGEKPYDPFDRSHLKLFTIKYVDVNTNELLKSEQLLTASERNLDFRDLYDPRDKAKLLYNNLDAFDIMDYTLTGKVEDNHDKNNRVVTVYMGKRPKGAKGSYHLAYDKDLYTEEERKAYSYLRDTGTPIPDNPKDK
Experiment: S. pyogenes streptokinase expression inhibitors, potency, dose response, plasminogen activation absorbance, OD405 (AID 1914);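 further: secreted streptokinase activity via plasminogen activation per viability signal from cell pellet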
Assay type: functional, Streptococcus pyogenes M1 GAS
Calls of active or inactive are those of the source.
Hi there, I'd appreciate the recorded EC50 for every entry that follows.

I need EC50 for every entry listed below, if you could help.
1. COc1ccccc1C(=O)NNC(=O)C(=O)Nc1cccc(Cl)c1C
2. O=C(Nc1nc2ccc(F)cc2s1)c1ccccn1
3. COc1ccc(OCCCC(=O)Nc2nc(-c3ccccn3)cs2)cc1
4. O=C(Nc1cccc(Cl)c1N1CCCC1)c1cc2ccccc2o1

> 150 µM (not active)
> 150 µM (not active)
> 150 µM (not active)
14.3 µM (active)

* * *

Biological target: Corticotropin-releasing factor receptor 2/Corticotropin-releasing factor-binding protein (Homo sapiens, UniProt P24387+Q13324)
Assay: activators of CRF receptor 2 with binding protein – uHTS hits, confirmation (AID 602473)
Type: functional
Details: read-out: EC50_Mean
Calls of active or inactive are those of the source.
I would appreciate it if you answered using one of these outcomes: y (active), n (inactive)

Example results:
COc1cc(C#Cc2c(-c3ccccc3)n(C)c3ccccc23)cc(OC)c1
n
C=CCOc1c(CNc2cccc(C(=O)O)c2)cccc1OCC
n
CC(C)CN(CC(C)C)C(S)=NC1CCCCC1
n
CC(C)CC(=O)Nc1ccc(C(=O)COC(=O)Cc2n[nH]c(=O)c3ccccc23)cc1
y
CCN(CC)c1nc(C=Cc2ccc(N(C)C)cc2)c2nccnc2n1
y
COc1ccccc1N1C(C)=CC(=C(C#N)c2nc3ccccc3s2)C=C1C
y

Switching to the query record.
Recorded call for O=C(COc1ccccc1C(=O)c1cnn(-c2ccccc2)c1)Nc1ccc2ccccc2c1 ?
n
